All figures here come from patent US20230126310A1.

- System: SARS-CoV-2
- stated-conditions: 10 µM

- chemical-string: "CCN(CC)CC1CCN(c2ncc3ncnc(Nc4ccc(F)c(Cl)c4)c3n2)CC1.Cl.Cl"
  measurement-target: "SARS-CoV-2"
  % Inh. (% Inhibition of SARS-CoV-2): "78.5%"
- chemical-string: "COc1ccc(CNC(=O)Nc2ncc([N+](=O)[O-])s2)cc1"
  measurement-target: "SARS-CoV-2"
  % Inh. (% Inhibition of SARS-CoV-2): "82.3%"
- chemical-string: "O=C(Cc1ccc(-c2ccc(OCCN3CCOCC3)cc2)cn1)NCc1ccccc1"
  measurement-target: "SARS-CoV-2"
  % Inh. (% Inhibition of SARS-CoV-2): "79.9%"

###

Recorded % Inh. (% Inhibition of SARS-CoV-2) for the following compounds
- Tested on: SARS-CoV-2
- stated-conditions: 10 µM

- compound: "Cc1ccc(C(=O)N(CCCN)[C@@H](c2oc3cc(Cl)ccc3c(=O)c2Cc2ccccc2)C(C)C)cc1"
  % Inh. (% Inhibition of SARS-CoV-2) [%]: 78.9
- compound: "C=C[C@@]1(C)CC(=O)[C@]2(O)[C@@]3(C)[C@@H](O)CCC(C)(C)[C@@H]3[C@H](OC(=O)CCN(C)C)[C@H](OC(C)=O)[C@@]2(C)O1 [colforsin-daproate]"
  % Inh. (% Inhibition of SARS-CoV-2) [%]: 80.3
- compound: "COc1ccc(C(=O)N2CCCc3cc(C4=NNC(=O)SC4C)ccc32)cc1OC (stereo not drawn)"
  % Inh. (% Inhibition of SARS-CoV-2) [%]: 79.6
